# assay.system: UniProt Q9NWZ3
# experimental.protocol: IRAK4 Inhibition Assay
# Type: biochemical
# recorded.conditions: IRAK4 Inhibition Assay; ATP 500 μM; read-out: IRAK4 IC50
Binary call on IC50 with cut-off 4 nM: strictly below means yes (1), and equality or higher means no (0).

>  <compound>
CC(C)(O)[C@H](F)CNC(=O)c1cnc(-n2cnc3cc(Cl)cnc32)cc1Nc1cnn(CCC#N)c1 [Example 374]

>  <category>
yes (1)

$$$$
>  <compound>
CC(C)Nc1cc(-n2cnc3cc(C#N)cnc32)ncc1C(=O)NC[C@@H](F)C(C)(C)F [Example 342]

>  <category>
no (0)

$$$$
>  <compound>
CC(C)Nc1cc(-n2ncc3cc(C#N)cnc32)ncc1C(=O)Nc1ccc(CN2CCOCC2)cc1 [Example 226]

>  <category>
no (0)

$$$$
>  <compound>
CC(C)Nc1cc(-n2ncc3cc(C#N)cnc32)ncc1C(=O)NC[C@@H](F)C(=O)N1CCOCC1 [Example 256]

>  <category>
no (0)

$$$$

Regarding CC(C)(O)CNc1cc(-n2ccc3cc(Cl)cnc32)ncc1C(=O)NC[C@@H](F)C(C)(C)O [Example 35] , kindly confirm whether its IC50 is beneath 4 nM.
yes (1)

Is 4 nM strictly greater than the compound's reported IC50? compound: CC(C)(C)Nc1cc(-n2ncc3cc(C#N)cnc32)ncc1C(=O)NC[C@@H](F)C(C)(C)O [Example 286]
yes (1)

###

Reported pIC50 is given for each of the following molecules.
# assay.system: IRAK4 (Homo sapiens (Human), UniProt Q9NWZ3)
# Sequence (Q9NWZ3 whole entry, species assumed): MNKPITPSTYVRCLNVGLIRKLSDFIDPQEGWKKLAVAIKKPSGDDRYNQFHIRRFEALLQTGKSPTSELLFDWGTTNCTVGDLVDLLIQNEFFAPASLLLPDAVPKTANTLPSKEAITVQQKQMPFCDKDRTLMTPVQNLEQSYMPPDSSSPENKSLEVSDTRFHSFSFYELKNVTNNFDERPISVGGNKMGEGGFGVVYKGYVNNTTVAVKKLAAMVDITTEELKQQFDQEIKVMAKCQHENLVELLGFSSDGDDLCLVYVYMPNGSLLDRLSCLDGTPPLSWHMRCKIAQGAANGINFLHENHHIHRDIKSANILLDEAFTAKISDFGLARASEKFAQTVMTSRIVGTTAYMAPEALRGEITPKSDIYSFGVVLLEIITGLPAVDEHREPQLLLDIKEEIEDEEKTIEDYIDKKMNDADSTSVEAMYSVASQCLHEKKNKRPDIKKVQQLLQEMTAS
# experimental.protocol: IRAK4 Inhibition Assay
# Assay type: biochemical
# recorded.conditions: IRAK4 Inhibition Assay; ATP 500 μM; read-out: IRAK4 IC50
pIC50 field: float, defined as -log10 of concentration (mol/L).

>  <molecule>
CC(=O)N[C@H]1CC[C@H](NC(=O)c2cnc(-n3ccc4cc(C#N)cnc43)cc2NC2CC2)CC1

>  <endpoint.value>
8.72

$$$$
>  <molecule>
CC(C)(O)[C@H](F)CNC(=O)c1cnc(-n2cnc3cc(Cl)cnc32)cc1Nc1cnn(CCCF)c1

>  <endpoint.value>
8.59

$$$$
>  <molecule>
CNC(=O)[C@H]1CC[C@H](NC(=O)c2cnc(-n3ccc4cc(C#N)cnc43)cc2NC(C)C)CC1

>  <endpoint.value>
8.96

$$$$

Item under review: CC(O)CCNC(=O)c1cnc(-n2ncc3cc(C#N)cnc32)cc1NC(C)C (stereo not shown) [Example 238] . Reported pIC50?
8.09

Value lookup for pIC50; key = CC(C)Nc1cc(-n2ncc3cc(C#N)cnc32)ncc1C(=O)NCCC1(O)CCCC1
8.44

Please look up its pIC50: CC(C)Nc1cc(-n2ncc3cc(C#N)cnc32)ncc1C(=O)NC1CCN(C(=O)C(C)C)CC1
7.73

###

# assay.system: IRAK4 (Homo sapiens (Human), UniProt Q9NWZ3)
# experimental.protocol: IRAK4 Inhibition Assay
# Assay type: biochemical
# recorded.conditions: IRAK4 Inhibition Assay; ATP 500 μM; read-out: IRAK4 IC50
# Protocol: The assays were performed in U-bottom 384-well plates. […] The reaction was initiated by the combination of IRAK4 with substrates and test compounds. The reaction mixture was incubated at room temperature for 60 min. and terminated by adding 45 μL of 35 mM EDTA to each sample. The reaction mixture was analyzed on the Caliper LABCHIP® 3000 (Caliper, Hopkinton, Mass.) by electrophoretic separation of the fluorescent substrate and phosphorylated product.
parameter.measured: pIC50
Remember the convention: pIC50 equals -log10 of concentration in molar.

Here is how some compounds turned out for pIC50.
>  <compound>
CC(C)Nc1cc(-n2cnc3cnc(N)nc32)ncc1C(=O)NC[C@@H](F)C(C)(C)F [Example 346]

>  <pIC50>
8.44

$$$$
>  <compound>
CC(C)Nc1cc(-n2ncc3cc(C#N)c(N)nc32)ncc1C(=O)NC1(C)CC1 [Example 322]

>  <pIC50>
8.17

$$$$
>  <compound>
CC(C)Nc1cc(-n2ncc3cc(C#N)cnc32)ncc1C(=O)N[C@@H]1CC[C@@H](C(C)(C)O)OC1 [Example 296]

>  <pIC50>
8.15

$$$$
>  <compound>
C[C@@H](CF)Nc1cc(-n2ccc3cncnc32)ncc1C(=O)NC[C@@H](F)C(C)(C)O [Example 116]

>  <pIC50>
8.21

$$$$
>  <compound>
CC(C)Nc1cc(-n2ncc3cc(C#N)cnc32)ncc1C(=O)NCC(F)C1(O)COC1 (stereo not drawn) [Example 249]

>  <pIC50>
8.21

$$$$
>  <compound>
CC[C@H](C)Nc1cc(-n2ncc3cc(C#N)cnc32)ncc1C(=O)NC[C@@H](F)C(C)(C)O [Example 289]

>  <pIC50>
8.33

$$$$
>  <compound>
CC(C)(O)[C@H](F)CNC(=O)c1cnc(-n2ccc3cc(C#N)cnc32)cc1NCC(F)(F)F [Example 5]

>  <pIC50>
8.64

$$$$
>  <compound>
CNC(=O)[C@H]1CC[C@H](NC(=O)c2cnc(-n3ccc4cncnc43)cc2NC(C)C)CC1 [Example 81]

>  <pIC50>
7.85

$$$$
>  <compound>
CCCn1cc(Nc2cc(-n3ccc4cc(C#N)cnc43)ncc2C(=O)NC[C@@H](F)C(C)(C)O)cn1 [Example 383]

>  <pIC50>
8.85

$$$$
>  <compound>
CC(C)(O)[C@H](F)CNC(=O)c1cnc(-n2ccc3cc(C#N)cnc32)cc1NC1CCC(F)C1 (single isomer, unassigned) [Example 110]

>  <pIC50>
8.89

$$$$

# query: pIC50 | item CC(C)Nc1cc(-n2ncc3cc(C#N)cnc32)ncc1C(=O)NC[C@@H](F)C(O)C(C)C (single isomer, unassigned) [Example 233] | system: IRAK4 (Homo sapiens (Human), UniProt Q9NWZ3)
8.44

# get_value(readout= pIC50, system= IRAK4 (Homo sapiens (Human), UniProt Q9NWZ3)) for CC(C)(O)[C@H](F)CNC(=O)c1cnc(-n2ccc3cc(C#N)cnc32)cc1NC1CCC1 [Example 6]
9.00

Reference source for all entries: patent US9169252B2
